Source of measurements: ChEMBL document CHEMBL4052775

TEST PROTOCOL: Cytotoxicity against African green monkey Vero cells assessed as reduction in cell viability after 72 hrs by MTT assay
Format: cell-based
RECORDED CONDITIONS: chlorocebus sabaeus
Below, each of the compounds is paired with its reported CC50 at 72 h value.

COc1c(N2CCNC(C)C2)c(F)cc2c(=O)c(C(=O)O)cn(C3CC3)c12 (stereo not drawn) :: 125 µg/mL
NNC(=O)c1ccncc1 :: 125 µg/mL

Next item in the queue.
Tell me the measured CC50 at 72 h of CO[C@H]1/C=C/O[C@@]2(C)Oc3c(C)c(O)c4c(O)c(c(/C=N/N5CCN(C)CC5)c(O)c4c3C2=O)NC(=O)/C(C)=C\C=C\[C@H](C)[C@H](O)[C@@H](C)[C@@H](O)[C@@H](C)[C@H](OC(C)=O)[C@@H]1C , please.
500 µg/mL

====

TEST PROTOCOL: Selectivity index, ratio of CC50 for African green monkey Vero cells to MIC for Mycobacterium tuberculosis H37Rv ATCC 27294
Type: toxicity
RECORDED CONDITIONS: read-out: Selectivity Index
METRIC: selectivity ratio

Please report the recorded selectivity ratio for COc1c(N2CCNC(C)C2)c(F)cc2c(=O)c(C(=O)O)cn(C3CC3)c12 (stereo unspecified) .
160
